assay: folding stability dG unfold (combined trypsin and chymotrypsin); higher = more stable
MEASURED METRIC: folding stability dG unfold

primary_sequence="SAAEIDEDGTIRIVLSEEAVKNMSEEELKALAEELAKLLPPGAKVEIKIVKPKPVKEEKKLYDKDGKEVSAG [r14_312_TrROS_Hall]" recorded_result="3.3 kJ/mol"
primary_sequence="SMRLVPVPVRSADGRASVDEIRAAIREALPEGLRVDFGEEFIERALREAERRYGGRLRPDDFPILVPVLGSA [r9_197_TrMRF]" recorded_result="< -4.18 kJ/mol"
primary_sequence="SAGYKATIIPPDGSEVTIDVKAEDLGPLVEELEKAGLKVESLEVSPDGTAVIPVTSPDGKPYLIVIDLKSAG [r5_645_TrMRF]" recorded_result="1.73 kJ/mol"
primary_sequence="SAGGSAGGSAGMTYVYPGPDGKEYLAEVDPNIPGAEVTVTPPDTGETVTVPLSQVTEVPPSAGGSAGGSAGG [r11_822_JUSTAS]" recorded_result="0.927 kJ/mol"

---

assay: folding stability dG unfold from chymotrypsin proteolysis; higher = more stable
MEASURED METRIC: folding stability dG unfold (kJ/mol)

primary_sequence="SAGGGIVIPVPAETARELLEKLAPDGADVTVESLGSLGGGEVYRATFTDPVFGNTVDIEVLVGPEGGSAGGS [r16_486_TrMRF]" measured_metric="folding stability dG unfold" recorded_result=1.26
primary_sequence="SAGGSAGGWIKLDGKEVYIVIPDGNPEQIAKELKEQFPNGNIKPHPGQNAEEAAKKNKRVIWIPSAGGSAGG [r6_680_TrROS]" measured_metric="folding stability dG unfold" recorded_result=3.23
primary_sequence="SAGDGITVNPEKVTLTLDITLPDGTVLRVTVTLTPDGVEVTVEPVPVPPLPGATSPEEAEELLKQALASSAG [r5_272_TrMRF]" measured_metric="folding stability dG unfold" recorded_result=9.93
primary_sequence="SAGGSAGGSAGGKKTYVKKIVTEKKKVKLFFYDKKTGELLEEKEVEVIKTKIYVTKPDEFSAGGSAGGSAGG [r7_573_TrMRF]" measured_metric="folding stability dG unfold" recorded_result=3.7

---

Item-by-item account of folding stability dG unfold
test: folding stability dG unfold (combined trypsin and chymotrypsin); higher = more stable
MEASURED METRIC: folding stability dG unfold (kcal/mol)

primary_sequence="SAGGSAGGSAGGLSLKVKNKKTGKWYDIESIEVKKDPSSGKPVIKIKTSGPKEVEKELVSAGGSAGGSAGGS [r10_663_TrMRF]" unit_annotation=kcal/mol recorded_result=-0.34
primary_sequence="SAGGSAGGSAGGGLEEIKEAIKKLPENVKEITIKLKDGSTIKIRVEKDKDGKYKITIEPSAGGSAGGSAGGS [r10_1017_TrROS_Hall]" unit_annotation=kcal/mol recorded_result=2.5
primary_sequence="SAGGSAGGSITIEIPGASSLEEAIEQAEVVVNEIVKKGYPGKPIKVTVILPGTGEAFTFEVPLESAGGSAGG [r6_237_TrMRF]" unit_annotation=kcal/mol recorded_result=2.19
primary_sequence="SAGGKIEELAKELAKKLNIEKVEVEEKDGKLVVKLVVKDKKTNKYYRITIEVDDDGNIKISIEPLPPSAGGS [r16_433_TrROS_Hall]" unit_annotation=kcal/mol recorded_result=5.12
primary_sequence="SAGGSAGGSWDRIKDALRKYGFPPENVKIEFETYPNGNMNVMIRHNGEQIPRNRINKAIQELMSAGGSAGGS [r12_175_TrROS]" unit_annotation=kcal/mol recorded_result=1.54
primary_sequence="SEKIKELIKKLAEELNLKIVKIEKKEDGKIIIEFENGIKIEIEIDPEKKNKIKIKIEKTKNGKLKITIEPSA [r9_809_TrROS_Hall]" unit_annotation=kcal/mol recorded_result=2.24
primary_sequence="SAGGSAGGSPKVTTSTSSSVLGNGRLESTVSNPDLGVTTLTLTDPESDVVTTFTETAGSTTPAASAGGSAGG [r6_757_JUSTAS]" unit_annotation=kcal/mol recorded_result=0.606
